Data credit: patent US20250296971A1

Biological target: GIPR (CHO-K1-hGIPR cells) (Homo sapiens, UniProt P48546)
Construct: host or cells: CHO-K1
Sequence (P48546 22-466): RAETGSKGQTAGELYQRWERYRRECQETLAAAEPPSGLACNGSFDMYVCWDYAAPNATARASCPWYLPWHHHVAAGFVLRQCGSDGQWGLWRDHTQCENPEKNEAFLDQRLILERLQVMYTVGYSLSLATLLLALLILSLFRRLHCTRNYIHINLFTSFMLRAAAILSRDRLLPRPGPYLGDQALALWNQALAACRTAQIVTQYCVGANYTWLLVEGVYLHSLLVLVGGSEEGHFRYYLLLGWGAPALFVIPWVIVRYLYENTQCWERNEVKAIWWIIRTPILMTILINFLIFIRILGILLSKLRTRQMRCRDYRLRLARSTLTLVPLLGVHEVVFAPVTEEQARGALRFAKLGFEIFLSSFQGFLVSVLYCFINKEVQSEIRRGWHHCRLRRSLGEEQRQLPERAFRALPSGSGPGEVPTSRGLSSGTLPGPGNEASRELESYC
Assay: FACS binding assay
Details: competition with 20 nM GIP-057, 4° C. for 1 hour, read-out: pIC50 Category (converted)
*1 amine or outer side, *2 acyl side, *3 side chain or, on linkers, in order; H or OH if unused. Where a SMILES comes first, the peptide text is derived from it. Bridges are numbered along the chain shown (N, C = ends). [ ]: non-standard residue; d: D form. The star is where a group is joined. X5 = NC(=O)[C@H](CCCCNC(=O)CN1CCN(CC(=O)O)CCN(CC(=O)O)CCN(CC(=O)O)CC1)NC(=O)CCC(=O)NCCCOCCOCCOCCCN*; Propanoyl(3-(1-naphthyl)) = O=C(CCc1cccc2ccccc12)*; Trp(5-Cl) = N[C@@H](Cc1c[nH]c2ccc(Cl)cc12)C(=O)O; Pyridine(2,6-diCH2) = c1cc(C[*:1])nc(C[*:2])c1; Trp(7-aza) = N[C@@H](Cc1c[nH]c2ncccc12)C(=O)O; mXylylene = c1cc(C[*:1])cc(C[*:2])c1; Hyp = O=C(O)[C@@H]1C[C@@H](O)CN1; hArg = N=C(N)NCCCC[C@H](N)C(=O)O; Pen = CC(C)(S)[C@H](N)C(=O)O; Thp = NC1(C(=O)O)CCOCC1; Aib = CC(C)(N)C(=O)O
Listing: IC50 of selected compounds

Compound	Recorded endpoint	Result
CC[C@H](C)[C@@H]1NC(=O)[C@H](CC(C)C)NC(=O)C2(CCOCC2)NC(=O)[C@@H](NC(=O)[C@@H](CC(C)C)NC(=O)[C@H](CCC(=O)O)NC(=O)[C@@H]2C[C@@H](O)CN2C(=O)[C@H](Cc2c[nH]c3ncccc23)NC(=O)[C@H](Cc2c[nH]c3ccccc23)NC(=O)[C@H](CC(=O)O)NC(C)=O)CSCc2cccc(n2)CSC[C@@H](C(N)=O)NC1=O [GIP-267] (Ac-DW[Trp(7-aza)][Hyp]E[dL]C[Thp]LIC-NH2; linker 7-11 via Pyridine(2,6-diCH2))	IC50	10 to 79.4 nM

Data point: CC[C@H](C)[C@@H]1NC(=O)[C@H](CC(C)C)NC(=O)C(C)(C)NC(=O)[C@@H](NC(=O)[C@H](CC(C)C)NC(=O)[C@H](CCC(=O)O)NC(=O)[C@@H]2CCCN2C(=O)[C@H](Cc2c[nH]c3ccccc23)NC(=O)[C@H](Cc2c[nH]c3ccccc23)NC(=O)[C@H](CC(=O)O)NC(C)=O)CSCc2cccc(c2)CSC(C)(C)[C@@H](C(N)=O)NC1=O [GIP-339] (Ac-DWWPELC[Aib]LI[Pen]-NH2; linker 7-11 via mXylylene) ; IC50 = > 1000 nM

Data point: CC[C@H](C)[C@@H]1NC(=O)[C@H](CC(C)C)NC(=O)C2(CCOCC2)NC(=O)[C@@H](NC(=O)[C@@H](CC(C)C)NC(=O)[C@H](CCCCNC(=N)N)NC(=O)[C@@H]2C[C@@H](O)CN2C(=O)[C@H](Cc2c[nH]c3ccc(Cl)cc23)NC(=O)[C@H](Cc2c[nH]c3ccccc23)NC(=O)[C@H](CC(=O)O)NC(C)=O)CSCc2cccc(n2)CSC[C@@H](C(N)=O)NC1=O [GIP-395] (Ac-DW[Trp(5-Cl)][Hyp][hArg][dL]C[Thp]LIC-NH2; linker 7-11 via Pyridine(2,6-diCH2)) ; IC50 = 10 to 79.4 nM

Data point: CC[C@H](C)[C@@H]1NC(=O)[C@H](CC(C)C)NC(=O)[C@H](C)NC(=O)[C@@H](NC(=O)[C@H](CC(C)C)NC(=O)[C@H](CCC(=O)O)NC(=O)[C@@H]2CCCN2C(=O)[C@H](Cc2c[nH]c3ccccc23)NC(=O)[C@H](C)NC(=O)[C@H](CC(=O)O)NC(=O)[C@H](Cc2ccc(O)cc2)NC(=O)[C@@H](N)CCSC)CSCc2cccc(c2)CSC[C@@H](C(N)=O)NC1=O [GIP-333] (H-MYDAWPELCALIC-NH2; linker 9-13 via mXylylene) ; IC50 = > 1000 nM

Data point: CC[C@H](C)[C@@H]1NC(=O)[C@H](CC(C)C)NC(=O)C(C)(C)NC(=O)[C@@H](NC(=O)[C@H](CC(C)C)NC(=O)[C@H](CCC(=O)O)NC(=O)[C@@H]2CCCN2C(=O)CCc2cccc3ccccc23)CSCc2cccc(c2)CSC[C@@H](C(=O)NCCCOCCOCCOCCCNC(=O)CCC(=O)N[C@@H](CCCCNC(=O)CN2CCN(CC(=O)O)CCN(CC(=O)O)CCN(CC(=O)O)CC2)C(N)=O)NC1=O [GIP-299] ({Propanoyl(3-(1-naphthyl))}-PELC[Aib]LIC-X5; linker 4-8 via mXylylene) ; IC50 = > 1000 nM
